Test system: HCT116 (colon) cancer cell line
Test: MTT antiproliferation, HCT116
Format: cell-based, human
Details: Homo sapiens, HCT-116, 72 h, read-out: IC50 (µM) ± SEM HCT116
Output TRUE for records whose IC50 is lower than 5 µM, FALSE for records at or above 5 µM.

{"COMPOUND": "COc1ccc(/C=C2\\CN(S(C)(=O)=O)CC3(C2=O)C(c2ccc(OC)c(OC)c2)CN(C)C32C(=O)Nc3ccc(Cl)cc32)cc1OC (stereo not drawn) [Compound 6o]", "TESTED SYSTEM": "HCT116 (colon) cancer cell line", "CLASS ASSIGNMENT": "FALSE"}
{"COMPOUND": "CN1CC(c2ccccc2)C2(CN(S(C)(=O)=O)C/C(=C\\c3ccccc3)C2=O)C12C(=O)Nc1ccc(Cl)cc12 (stereo not drawn) [Compound 6b]", "TESTED SYSTEM": "HCT116 (colon) cancer cell line", "CLASS ASSIGNMENT": "FALSE"}
{"COMPOUND": "CCS(=O)(=O)N1C/C(=C\\c2ccccc2)C(=O)C2(C1)C(c1ccccc1)CN(C)C21C(=O)Nc2ccc(Cl)cc21 (stereo not drawn) [Compound 6d]", "TESTED SYSTEM": "HCT116 (colon) cancer cell line", "CLASS ASSIGNMENT": "FALSE"}
{"COMPOUND": "CCS(=O)(=O)N1C/C(=C\\c2ccccc2)C(=O)C2(C1)C(c1ccccc1)CN(C)C21C(=O)Nc2ccccc21 (stereo not drawn) [Compound 6c]", "TESTED SYSTEM": "HCT116 (colon) cancer cell line", "CLASS ASSIGNMENT": "FALSE"}
{"COMPOUND": "CN1CC(c2ccc(F)cc2)C2(CN(S(C)(=O)=O)C/C(=C\\c3ccc(F)cc3)C2=O)C12C(=O)Nc1ccccc12 (stereo not drawn) [Compound 6e]", "TESTED SYSTEM": "HCT116 (colon) cancer cell line", "CLASS ASSIGNMENT": "FALSE"}
{"COMPOUND": "CN1CC(c2ccc(Cl)cc2)C2(CN(S(C)(=O)=O)C/C(=C\\c3ccc(Cl)cc3)C2=O)C12C(=O)Nc1ccccc12 (stereo not drawn) [Compound 6i]", "TESTED SYSTEM": "HCT116 (colon) cancer cell line", "CLASS ASSIGNMENT": "FALSE"}
{"COMPOUND": "CCS(=O)(=O)N1C/C(=C\\c2ccc(F)cc2)C(=O)C2(C1)C(c1ccc(F)cc1)CN(C)C21C(=O)Nc2ccc(Cl)cc21 (stereo not drawn) [Compound 6h]", "TESTED SYSTEM": "HCT116 (colon) cancer cell line", "CLASS ASSIGNMENT": "TRUE"}
{"COMPOUND": "CN1CC(c2ccc(Cl)cc2)C2(CN(S(C)(=O)=O)C/C(=C\\c3ccc(Cl)cc3)C2=O)C12C(=O)Nc1ccc(Cl)cc12 (stereo not drawn) [Compound 6j]", "TESTED SYSTEM": "HCT116 (colon) cancer cell line", "CLASS ASSIGNMENT": "TRUE"}
{"COMPOUND": "COc1ccc(/C=C2\\CN(S(C)(=O)=O)CC3(C2=O)C(c2ccc(OC)c(OC)c2)CN(C)C32C(=O)Nc3ccccc32)cc1OC (stereo not drawn) [Compound 6n]", "TESTED SYSTEM": "HCT116 (colon) cancer cell line", "CLASS ASSIGNMENT": "FALSE"}

Value source: paper PMC9380671
